Reported Morningglory plant response rating values are given for each entry in this list.
System: morningglory (Ipomoea coccinea)
assay_overview: Test B pre/postemergence
Type: in vivo
assay_context: Postemergence, 125 g ai/ha; scale 0 to 100 (0 no effect, 100 complete control)

Before answering, review these 2 worked examples.
                                   compound                        measure_name  result
0  CCOC(=O)C(C)c1nc(C2CC2)nc(N)c1Br (stereo not shown)  Morningglory plant response rating      40
1      CCOC(=O)Cc1nc(C2CC2)nc(N=CN(C)C)c1Br  Morningglory plant response rating      40

So what Morningglory plant response rating did Nc1nc(-c2ccc(Br)cc2)nc(C(=O)O)c1Br get with morningglory (Ipomoea coccinea)?
100

Give morningglory (Ipomoea coccinea) Morningglory plant response rating for Nc1nc(-c2ccc(Cl)cc2)nc(C(=O)[O-])c1Cl.[Na+]
100

----------
System: Surinam grass (Brachiaria decumbens)
assay_overview: Test C pre/postemergence
Type: in vivo
assay_context: Urochloa decumbens, post-emergence; Postemergence, 62 g ai/ha; scale 0 to 100 (0 no effect, 100 complete control); read-out: Surinam Grass plant response rating
Reported pest or weed control at 62 g/ha values for a set of compounds

Would you please look over these solved cases?
                                   compound                     measure_name  result
0  Nc1nc(C2CC2)nc(C(=O)OCc2ccccc2)c1Br [Compound 22]  pest or weed control at 62 g/ha     55%
1  COC(=O)c1nc(C2CC2)nc(N)c1Cl [Compound 9]  pest or weed control at 62 g/ha     65%
2  CNc1nc(C2CC2)nc(C(=O)OC)c1Br [Compound 5]  pest or weed control at 62 g/ha      0%
3  COC(=O)c1nc(C(C)C)nc(N)c1Br [Compound 3]  pest or weed control at 62 g/ha      0%
4  CCOC(=O)c1nc(C2CC2)nc(N)c1Br [Compound 1]  pest or weed control at 62 g/ha     90%
5   COC(=O)c1nc(C2CC2)nc(N)c1I [Compound 7]  pest or weed control at 62 g/ha      0%
6  CCOC(=O)c1nc(C2CC2)nc(N)c1Cl [Compound 4]  pest or weed control at 62 g/ha     60%
7   Nc1nc(C2CC2)nc(C(=O)O)c1Br [Compound 8]  pest or weed control at 62 g/ha     40%

What pest or weed control at 62 g/ha value was documented for this compound, CCOC(=O)c1nc(C2CC2)nc(NN)c1Br [Compound 42] ?
0%

----------
// reported Plant response rating, Pigweed per item
Test system: pigweed (Amaranthus retroflexus)
assay_overview: Test D pre/postemergence
Format: in vivo
assay_context: Preemergence, 62 g ai/ha, scale 0 to 100 (100 = complete control)
No unit in the answer, only the number.

Sample records with Plant response rating, Pigweed:
>>> print(df.to_string())
                                   compound                    measure_name  number
0  COC(=O)c1nc(C2CC2C)nc(N)c1Br (stereo not shown) [Compound 28]  Plant response rating, Pigweed      45
1  COC(=O)c1nc(C2CC2)nc(N)c1Br [Compound 2]  Plant response rating, Pigweed      85
2  COC(=O)c1nc(-c2ccc(Cl)cc2)nc(N)c1Cl [Compound 58]  Plant response rating, Pigweed      70

Return Plant response rating, Pigweed measured with pigweed (Amaranthus retroflexus) given this compound: CCOC(=O)c1nc(C2CC2)nc(N)c1Br [Compound 1]
95

----------
Listed here are compounds together with their documented Barnyardgrass plant response rating.
Tested on: barnyardgrass (Echinochloa crus-galli)
assay_overview: Test E flooded paddy water application
Assay type: in vivo
assay_context: 125 g ai/ha; Flood; 21 days; scale 0 to 100 (0 no effect, 100 complete control)
Lab note: write the figure by itself, no unit.

Below, 2 compounds whose answers are already recorded.
>>> print(df.to_string())
                                chem_smiles  number
0        Nc1nc(-c2ccc(Cl)cc2)nc(C(=O)O)c1Br       0
1  CCOC(=O)c1nc(-c2ccc(Cl)c(Cl)c2)nc(N)c1Br       0

Look up Barnyardgrass plant response rating for this compound: COC(=O)c1nc(-c2ccc(Br)cc2)nc(N)c1Br
0

# input compound: Nc1nc(-c2ccc(Cl)cc2)nc(C(=O)[O-])c1Cl.[Na+] ; wanted: its Barnyardgrass plant response rating
0

Barnyardgrass plant response rating lookup needed for CCOC(=O)c1nc(-c2ccc(Cl)cc2)nc(N)c1Br , thanks.
0

Fill in the blank: the reported Barnyardgrass plant response rating of Nc1nc(-c2ccc(Br)cc2)nc(C(=O)O)c1Cl is ____.
0

----------
System: goosegrass (Eleusine indica)
assay_overview: Test C pre/postemergence
Format: in vivo
assay_context: Postemergence, 31 g ai/ha
From the text: […]
Parameter: Plant response rating (scale of 0 to 100), Goosegrass. Scope: all listed entries.
Lab note: write the figure by itself, no unit.

Recorded Plant response rating (scale of 0 to 100), Goosegrass, per entry:
In [3]: df
Out[3]:
                                   compound  number
0  CCOC(=O)C(OC(C)=O)c1nc(C2CC2)nc(N)c1Br (centres unmarked)       0
1       COC(=O)c1nc(-c2ccc(Cl)cc2)nc(N)c1Br      10
2        Nc1nc(-c2ccc(Br)cc2)nc(C(=O)O)c1Br      65

Record request: Plant response rating (scale of 0 to 100), Goosegrass value, item CCCCOC(=O)c1nc(C2CC2)nc(N)c1Br
0

Would you mind telling me what Plant response rating (scale of 0 to 100), Goosegrass value was observed for Nc1nc(-c2ccc(Cl)cc2)nc(C(=O)O)c1Br ?
50

----------
System: common (oilseed) sunflower (Helianthus annuus)
assay_overview: Test C pre/postemergence
Format: in vivo
assay_context: Preemergence, 31 g ai/ha; scale 0 to 100, 0 no effect, 100 complete control
Listed next: entries and their corresponding Plant response rating, Sunflower.
I'd appreciate a reply containing only the number, no unit.

Guide cases for Plant response rating, Sunflower, answers given:
>>> print(df.to_string())
                                   molecule                              assay_target  number
0  COC(=O)c1nc(C2CC2)nc(N=CN(C)C)c1Br [Compound 19]  common (oilseed) sunflower (Helianthus annuus)      25
1     COCc1nc(C2CC2)nc(N)c1Br [Compound 11]  common (oilseed) sunflower (Helianthus annuus)       0
2  CC(C)COC(=O)c1nc(C2CC2)nc(N)c1Br [Compound 17]  common (oilseed) sunflower (Helianthus annuus)      60

# evaluate next
Entry COC(=O)Cc1nc(C2CC2)nc(N)c1Br [Compound 13] has what Plant response rating, Sunflower?
5

----------
Measured pest or weed control at 62 g/ha, listed per entry.
Test system: lambsquarters (Chenopodium album)
assay_overview: Test C pre/postemergence
Type: in vivo
assay_context: Chenopodium album, post-emergence, Postemergence, 62 g ai/ha; scale 0 to 100 (0 no effect, 100 complete control); read-out: Lambsquarters plant response rating
Write the number in % without appending the unit.

Some compounds with known pest or weed control at 62 g/ha results, for comparison:
>>> print(df.to_string())
                                   compound                     measure_name  unit_annotation  number
0  COC(=O)c1nc(C2CC2)nc(N)c1Br [Compound 2]  pest or weed control at 62 g/ha                %     100
1  CCOC(=O)c1nc(-c2ccc(Cl)cc2)nc(N)c1Cl [Compound 64]  pest or weed control at 62 g/ha                %      90
2  CCOC(=O)c1nc(C2CC2)nc(N)c1Cl [Compound 4]  pest or weed control at 62 g/ha                %     100

Let us move to another entry and its pest or weed control at 62 g/ha.
Bench note: what pest or weed control at 62 g/ha did CCOC(=O)c1nc(C2CC2)nc(N)c1F [Compound 30] show?
60

----------
Here the recorded Soybean plant response rating is given for each entry.
Tested on: soybean (Glycine max)
assay_overview: Test C pre/postemergence
Assay type: in vivo
assay_context: Postemergence, 125 g ai/ha; scale 0 to 100 (0 no effect, 100 complete control)

Recorded results for 5 compounds are shown here.
>>> print(df.to_string())
                                   compound  result
0                  Nc1nc(C2CC2)nc(C=NO)c1Br      45
1            CCCCOC(=O)c1nc(C2CC2)nc(N)c1Cl     100
2  COC(=O)c1nc(C2CC2C)nc(N)c1Br (stereo not shown)      85
3          CC(C)COC(=O)c1nc(C2CC2)nc(N)c1Br     100
4        Nc1nc(-c2ccc(Cl)cc2)nc(C(=O)O)c1Br     100

Name the recorded Soybean plant response rating for COC(=O)c1nc(C2CC2)nc(N=CN(C)C)c1Br .
75

Sample CNN=Cc1nc(C2CC2)nc(N)c1Br — what was its Soybean plant response rating?
95

Recorded values, source patent US8802597B2.
